# cytotoxicity at 70.5 h per record follows
- assay comment: Human HepG2 cell viability assay in 384 well format
- Type: toxicity, cell-based
- Design: dose 125 nL, time 70.5 hour; concentration not given beside the values
- reported conditions: HepG2 cells, read-out: Inhibition
Reply with the number and its unit after it.

Example compounds with recorded cytotoxicity at 70.5 h:
Cc1cccc(OCC(=O)N(C)C2CCN(CC3CCOC3)CC2)c1 (stereo not given)    -9.11%
Cc1cccc(OCC2CCCN(C(=O)CCn3ccccc3=O)C2)c1 (stereo not given)    -11.2%
N#Cc1cccc(CS(=O)(=O)NC(Cc2ccccc2)C(N)=O)c1 (stereo not given)    -13.1%
COc1cc(CNCc2c(C)nn(C)c2N(C)C)ccn1    -1.56%
CC(C)N(CC(N)=O)C(=O)c1cnc(-c2ccc3c(c2)OCO3)s1    5.92%

Problem: Suppose we examine the compound Cn1cc(CN2CCCN(C(=O)c3cc[nH]n3)CC2)cn1 ; what cytotoxicity at 70.5 h value has been reported?
Result: -9.96%

Problem: Fill in: cytotoxicity at 70.5 h of CC(O)CN1CCN(C(=O)c2ccc(Cn3cccc3)cc2)CC1 (stereo not given) is ___
Result: -2.78%

Problem: GET /values?readout=cytotoxicity at 70.5 h&item= O=C(NCC1(O)CCSC1)c1ccn(-c2ccccc2F)n1 (stereo not given)
Result: -15.6%

Problem: Please give the measured cytotoxicity at 70.5 h for this compound: CC(C)NC(=O)N1Cc2nccn2CC(COc2cccnc2)C1 (stereo not given)
Result: 9.72%
